Data provenance is the supplement of paper PMC9780213.

# Test system: U2OS
# protocol_text: cell count relative to DMSO control (panel A, nuclei/RNA/PMG/mitochondria stain) (fraction of control); higher = more cells (less toxicity)
# reported_conditions: 5 µM; treatment time: 24 h
parameter: cell count

compound=COc1ccc(C[C@H](N)C(=O)N[C@H]2[C@@H](O)[C@H](n3cnc4c(N(C)C)ncnc43)O[C@@H]2CO)cc1 tested_system=U2OS parameter="cell count" observed_result=0.957
compound=O=NN(CCCl)C(=O)NC1CCCCC1 tested_system=U2OS parameter="cell count" observed_result=1.02
compound="CC(=O)N[C@H]1[C@@H](O[C@@H]2O[C@H](CC(O)[C@H]3O[C@@H](n4ccc(=O)[nH]c4=O)[C@H](O)[C@@H]3O)[C@H](O)[C@H](O)[C@H]2NC(=O)/C=C/CC(C)C)O[C@H](CO)[C@@H](N)[C@@H]1O (stereo partly drawn)" tested_system=U2OS parameter="cell count" observed_result=0.535
compound=O=C(N/N=C/c1ccc(O)c(O)c1)c1cc2ccccc2cc1O tested_system=U2OS parameter="cell count" observed_result=0.867
compound="N.N.[Cl][Pt][Cl] [cisplatin]" tested_system=U2OS parameter="cell count" observed_result=1.02
compound=Nc1c2ccccc2nc2ccccc12 tested_system=U2OS parameter="cell count" observed_result=0.383
compound=CC[C@H]1CN2CCc3cc(OC)c(OC)cc3[C@@H]2C[C@@H]1C[C@H]1NCCc2cc(OC)c(OC)cc21 tested_system=U2OS parameter="cell count" observed_result=1.02
compound=O=C(CCCCCCC(=O)Nc1ccccc1)NO tested_system=U2OS parameter="cell count" observed_result=1.02
